The reported measurements were obtained from ChEMBL document CHEMBL5724914.

# Experimental context: human gut metagenome, 24 h, 2 µM; further: call rule not given here

Compound: Cc1nc(Nc2ncc(C(=O)Nc3c(C)cccc3Cl)s2)cc(N2CCN(CCO)CC2)n1 [DASATINIB ANHYDROUS]
Bacterial Biotransformation: Compound metabolized
//
Compound: CC1=C(CC(=O)O)c2cc(F)ccc2/C1=C\c1ccc([S+](C)[O-])cc1 (centres undefined)
Bacterial Biotransformation: Compound metabolized
//
Compound: CCN(CC)CCOC(=O)C1(C2CCCCC2)CCCCC1
Bacterial Biotransformation: Compound metabolized

====

# Experimental context: human gut metagenome, 24 h, 2 µM
Parameter measured: Bacterial Biotransformation

Worked cases, Bacterial Biotransformation given:
Compound: CN1CCC[C@@H]1CCO[C@](C)(c1ccccc1)c1ccc(Cl)cc1.O=C(O)/C=C/C(=O)O [CLEMASTINE FUMARATE]
Parameter measured: Bacterial Biotransformation
Value: Compound metabolized
//
Compound: C[N+]12CCC(CC1)C(OC(=O)C(O)(c1ccccc1)c1ccccc1)C2.[Br-] (centres undefined) [CLIDINIUM BROMIDE]
Parameter measured: Bacterial Biotransformation
Value: Compound NOT metabolized
//
Compound: CCOc1cc(CC(=O)N[C@@H](CC(C)C)c2ccccc2N2CCCCC2)ccc1C(=O)O [REPAGLINIDE]
Parameter measured: Bacterial Biotransformation
Value: Compound metabolized
//
Compound: CCOC(=O)C1=C(C)NC(C)=C(C(=O)OC)C1c1cccc([N+](=O)[O-])c1 (centres undefined)
Parameter measured: Bacterial Biotransformation
Value: Compound metabolized
//
Compound: CC[C@@]1(O)C(=O)OCc2c1cc1n(c2=O)Cc2cc3c(CN(C)C)c(O)ccc3nc2-1
Parameter measured: Bacterial Biotransformation
Value: Compound NOT metabolized

Provide each entry's Bacterial Biotransformation from the list below.
1. C#C[C@]1(OC(C)=O)CC[C@H]2[C@@H]3CCC4=C[C@@H](OC(C)=O)CC[C@@H]4[C@H]3CC[C@@]21C [ETHYNODIOL DIACETATE]
2. COc1ccc([C@@H]2Sc3ccccc3N(CCN(C)C)C(=O)[C@@H]2OC(C)=O)cc1

["Compound metabolized", "Compound metabolized"]
